Data credit: the supplement of paper PMC9732359

- test_description: protein stability index of a GFP-peptide fusion (yeast GPS) (PSI 1-4); higher = more stable; sorted into four equal gates, so the index is relative within each strain
- assay_setup: pdr5∆
reported_property: protein stability index

## Task Find the recorded protein stability index belonging to IKDSVREVGTKFTTVLA [ECM29] and report it.
## Result 2.6

## Task Queued: SGTFYRYNAKAIGSGSE [PUP2]
## Result 3.14

## Task Queued: RLGLIPLQSMDIEQLEY [RPB3]
## Result 2.92

## Task Queued: SYRGVDLEKLLEMSTED [RPS15]
## Result 2.86

## Task Queued: TNWDDHAIIIFGYPETI [YMR153W/NUP53]
## Result 2.63

New cases:
## Task Find the recorded protein stability index belonging to KPNDLVGVNKDSYLILD [RPT5] and report it.
## Result 3.4

## Task Queued: KAEMPPEHLRKIINTHS [PRP8]
## Result 1.74

## Task Queued: VIWELDDSANIVNVNFM [DIS3]
## Result 2.85

## Task Queued: LLTAKHGMTLRESFEDN [RPO21]
## Result 2.56

## Task Queued: TANATANVNASAMPAPY [DSN1]
## Result 3.17
